target: Tyrosine-protein phosphatase non-receptor type 1 (Homo sapiens) (UniProt P18031); test: Inhibition of N-terminal polyHis-tagged human PTP1B1 (1 to 303 residues) expressed in Escherichia coli BL21(DE3)pLysS assessed as enzyme residual activity using pNPP as substrate at 5 uM by spectrophotometric analysis
Sequence (P18031 whole entry, the tested form may be a part): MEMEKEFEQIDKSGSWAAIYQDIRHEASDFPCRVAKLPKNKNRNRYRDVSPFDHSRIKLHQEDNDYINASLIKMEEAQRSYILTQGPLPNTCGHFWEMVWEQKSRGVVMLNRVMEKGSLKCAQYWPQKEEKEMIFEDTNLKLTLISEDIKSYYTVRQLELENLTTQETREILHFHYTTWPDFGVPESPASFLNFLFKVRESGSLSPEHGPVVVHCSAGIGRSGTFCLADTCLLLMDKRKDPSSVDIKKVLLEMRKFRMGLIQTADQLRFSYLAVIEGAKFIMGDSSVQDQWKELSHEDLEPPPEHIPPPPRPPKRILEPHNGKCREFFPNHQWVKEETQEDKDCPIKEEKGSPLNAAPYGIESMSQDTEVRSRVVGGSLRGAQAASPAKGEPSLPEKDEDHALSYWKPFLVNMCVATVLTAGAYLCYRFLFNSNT
Metric name: Activity (%)
Write the answer as a number in %, unit excluded.

Example molecules with recorded Activity:
O=C(O)CCN1C(=O)/C(=C/c2ccc(OCCCOc3ccccc3)cc2)SC1=S; 74.4
O=C(O)CCN1C(=O)/C(=C/c2cccc(OCCCc3ccccc3)c2)SC1=S; 67.6
O=C(O)CN1C(=O)/C(=C/c2ccc(OCCCOc3ccccc3)cc2)SC1=S; 87.6

Provide Activity, recorded with Tyrosine-protein phosphatase non-receptor type 1 (Homo sapiens) (UniProt P18031), of O=C(O)CN1C(=O)/C(=C/c2cccc(OCCCc3ccccc3)c2)SC1=S
81

Provide Activity, recorded with Tyrosine-protein phosphatase non-receptor type 1 (Homo sapiens) (UniProt P18031), of O=C(O)CCN1C(=O)/C(=C/c2cccc(OCCCOc3ccccc3)c2)SC1=S
77

Provide Activity, recorded with Tyrosine-protein phosphatase non-receptor type 1 (Homo sapiens) (UniProt P18031), of O=C(O)CCN1C(=O)/C(=C/c2ccc(OCCCc3ccccc3)cc2)SC1=S
99.8

Provide Activity, recorded with Tyrosine-protein phosphatase non-receptor type 1 (Homo sapiens) (UniProt P18031), of O=C(O)CN1C(=O)/C(=C/c2cccc(OCCCOc3ccccc3)c2)SC1=S
100

Provide Activity, recorded with Tyrosine-protein phosphatase non-receptor type 1 (Homo sapiens) (UniProt P18031), of O=C(O)CN1C(=O)/C(=C/c2ccc(OCCCc3ccccc3)cc2)SC1=S
79

###

target: Tyrosine-protein phosphatase non-receptor type 1 (Homo sapiens, UniProt P18031); assay: Non-competitive inhibition of N-terminal polyHis-tagged human PTP1B1 (1 to 303 residues) expressed in Escherichia coli BL21(DE3)pLysS assessed as apparent dissociation constant for EI complex using pNPP as substrate by Lineweaver-Burk plot analysis
Sequence (P18031 whole entry, the tested form may be a part): as above
Reported Ki is given for each of the following molecules.
Write the answer as a number in µM, unit excluded.

Name the recorded Ki of the molecule listed here: O=C(O)CN1C(=O)/C(=C/c2ccc(OCCCCc3ccccc3)cc2)SC1=S
12.1

Name the recorded Ki of the molecule listed here: O=C(O)CN1C(=O)/C(=C/c2cccc(OCCCCc3ccccc3)c2)SC1=S
4.6

###

target: Aldo-keto reductase family 1 member B1 (Homo sapiens, UniProt P15121); test: Mixed non-competitive inhibition of human recombinant AKR1B1 expressed in Escherichia coli BL21(DE3)pLysS assessed as apparent dissociation constant for ESI complex using L-idose as substrate by secondary plot analysis
Metric name: pKi
// field semantics: pKi = negative decimal log of concentration (mol/L)

Example compounds with recorded pKi:
O=C(O)CCN1C(=O)/C(=C/c2cccc(OCCCCc3ccccc3)c2)SC1=S; 5.96
O=C(O)CN1C(=O)/C(=C/c2cccc(OCCCCc3ccccc3)c2)SC1=S; 7.52

We now examine a further compound.
Name the recorded pKi of the compound listed here: O=C(O)CN1C(=O)/C(=C/c2ccc(OCCCCc3ccccc3)cc2)SC1=S
6.39

###

Reported pKi is given for each of the following compounds.
target: Aldo-keto reductase family 1 member B1 (Homo sapiens); experiment: Mixed non-competitive inhibition of human recombinant AKR1B1 expressed in Escherichia coli BL21(DE3)pLysS assessed as apparent dissociation constant for EI complex using L-idose as substrate by secondary plot analysis
// field semantics: pKi = negative decimal log of concentration (mol/L)

Example compounds with recorded pKi:
O=C(O)CN1C(=O)/C(=C/c2cccc(OCCCCc3ccccc3)c2)SC1=S; 7.10
O=C(O)CN1C(=O)/C(=C/c2ccc(OCCCCc3ccccc3)cc2)SC1=S; 5.89

Name the recorded pKi of the compound listed here: O=C(O)CCN1C(=O)/C(=C/c2cccc(OCCCCc3ccccc3)c2)SC1=S
5.40

###

target: Tyrosine-protein phosphatase non-receptor type 1 (Mus musculus) (UniProt P35821); assay: Inhibition of PTP1B in mouse C2C12 cells assessed as potentiation of insulin-induced Akt phosphorylation by measuring increase in ratio of pAkt to Akt at 20 uM treated for 15 mins in presence of insulin by western blot analysis; type: cell-based
Sequence (P35821 whole entry): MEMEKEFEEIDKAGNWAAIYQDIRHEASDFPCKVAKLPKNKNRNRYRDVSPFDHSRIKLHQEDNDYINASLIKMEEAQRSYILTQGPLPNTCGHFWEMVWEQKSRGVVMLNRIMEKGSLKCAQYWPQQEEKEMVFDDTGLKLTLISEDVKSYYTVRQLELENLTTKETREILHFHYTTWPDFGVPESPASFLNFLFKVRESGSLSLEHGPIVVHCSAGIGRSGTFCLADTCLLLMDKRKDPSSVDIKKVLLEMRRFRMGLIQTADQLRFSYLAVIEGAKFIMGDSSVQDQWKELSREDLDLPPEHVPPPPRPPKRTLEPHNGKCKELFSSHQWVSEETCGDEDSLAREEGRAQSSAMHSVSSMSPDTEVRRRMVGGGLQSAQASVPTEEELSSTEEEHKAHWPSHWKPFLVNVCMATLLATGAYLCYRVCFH
Activity calls are given as the source filed them. No cut-off for these calls is given here.
// one of 1 (active), -1 (inactive), no free text

O=C(O)CN1C(=O)/C(=C/c2ccc(OCCCCc3ccccc3)cc2)SC1=S; -1
O=C(O)CCN1C(=O)/C(=C/c2ccc(OCCCCc3ccccc3)cc2)SC1=S; 1
O=C(O)CCN1C(=O)/C(=C/c2cccc(OCCCCc3ccccc3)c2)SC1=S; 1

Moving on to the next compound.
What did this assay record as the result for O=C(O)CN1C(=O)/C(=C/c2cccc(OCCCCc3ccccc3)c2)SC1=S ?
1

###

molecular target: Tyrosine-protein phosphatase non-receptor type 1 (Mus musculus); assay: Inhibition of PTP1B in mouse C2C12 cells assessed as increase in Akt phosphorylation by measuring increase in ratio of pAkt to Akt at 20 uM treated for 15 mins by western blot analysis; assay type: cell-based
Calls of active or inactive are those of the source. The calls are words filed in the database; no cut-off is given here.
// one of yes (active), no (inactive), no free text

Look over these answered cases.
O=C(O)CCN1C(=O)/C(=C/c2cccc(OCCCCc3ccccc3)c2)SC1=S; yes
O=C(O)CN1C(=O)/C(=C/c2ccc(OCCCCc3ccccc3)cc2)SC1=S; no

What did this assay record as the result for O=C(O)CN1C(=O)/C(=C/c2cccc(OCCCCc3ccccc3)c2)SC1=S ?
yes

What did this assay record as the result for O=C(O)CCN1C(=O)/C(=C/c2ccc(OCCCCc3ccccc3)cc2)SC1=S ?
yes

###

Molecular target: Tyrosine-protein phosphatase non-receptor type 2 (Homo sapiens)
Sequence (P17706 whole entry): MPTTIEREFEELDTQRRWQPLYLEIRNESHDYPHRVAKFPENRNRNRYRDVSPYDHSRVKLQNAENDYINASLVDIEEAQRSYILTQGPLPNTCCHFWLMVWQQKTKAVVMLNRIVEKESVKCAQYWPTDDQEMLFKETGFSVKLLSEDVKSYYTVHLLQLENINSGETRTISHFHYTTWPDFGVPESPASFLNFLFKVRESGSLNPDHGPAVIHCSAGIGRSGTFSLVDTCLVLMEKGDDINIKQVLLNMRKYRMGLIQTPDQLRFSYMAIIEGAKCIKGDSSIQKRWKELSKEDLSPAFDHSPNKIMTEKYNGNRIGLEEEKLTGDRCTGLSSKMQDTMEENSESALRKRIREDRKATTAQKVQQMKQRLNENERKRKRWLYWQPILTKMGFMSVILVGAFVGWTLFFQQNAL
Assay: Inhibition of N-terminal polyHis-tagged human recombinant TC-PTPb (1 to 415 residues) expressed in Escherichia coli BL21(DE3)pLysS
Metric name: IC50 (µM)
Write the answer as a number in µM, unit excluded.

O=C(O)CCN1C(=O)/C(=C/c2cccc(OCCCCc3ccccc3)c2)SC1=S; 25.8

Provide IC50, recorded with Tyrosine-protein phosphatase non-receptor type 2 (Homo sapiens), of O=C(O)CN1C(=O)/C(=C/c2ccc(OCCCCc3ccccc3)cc2)SC1=S
193

Provide IC50, recorded with Tyrosine-protein phosphatase non-receptor type 2 (Homo sapiens), of O=C(O)CCN1C(=O)/C(=C/c2ccc(OCCCCc3ccccc3)cc2)SC1=S
9.1

Provide IC50, recorded with Tyrosine-protein phosphatase non-receptor type 2 (Homo sapiens), of O=C(O)CN1C(=O)/C(=C/c2cccc(OCCCCc3ccccc3)c2)SC1=S
9
